- Tested on: normal specimens (BM, CB, MPB)
- experiment: Viability of normal specimens (BM, CB, MPB), Annexin V/7-AAD
- Format: cell-based, human
- condition.description: normal specimens
measurement.label: Cytotoxic Normal

[[record]]
smiles_text = "Cn1sc(=O)n(Cc2ccccc2)c1=O"
system_name = "normal specimens (BM, CB, MPB)"
result = "No"

[[record]]
smiles_text = "COc1ccc(CNC(=O)Nc2ncc([N+](=O)[O-])s2)cc1"
system_name = "normal specimens (BM, CB, MPB)"
result = "No"

[[record]]
smiles_text = "CCOc1ccc(C=C2SC(=O)N(CCN)C2=O)cc1.Cl"
system_name = "normal specimens (BM, CB, MPB)"
result = "No"


###

- system.name: FLT3 (Homo sapiens, UniProt P36888)
- Sequence (P36888 27-993): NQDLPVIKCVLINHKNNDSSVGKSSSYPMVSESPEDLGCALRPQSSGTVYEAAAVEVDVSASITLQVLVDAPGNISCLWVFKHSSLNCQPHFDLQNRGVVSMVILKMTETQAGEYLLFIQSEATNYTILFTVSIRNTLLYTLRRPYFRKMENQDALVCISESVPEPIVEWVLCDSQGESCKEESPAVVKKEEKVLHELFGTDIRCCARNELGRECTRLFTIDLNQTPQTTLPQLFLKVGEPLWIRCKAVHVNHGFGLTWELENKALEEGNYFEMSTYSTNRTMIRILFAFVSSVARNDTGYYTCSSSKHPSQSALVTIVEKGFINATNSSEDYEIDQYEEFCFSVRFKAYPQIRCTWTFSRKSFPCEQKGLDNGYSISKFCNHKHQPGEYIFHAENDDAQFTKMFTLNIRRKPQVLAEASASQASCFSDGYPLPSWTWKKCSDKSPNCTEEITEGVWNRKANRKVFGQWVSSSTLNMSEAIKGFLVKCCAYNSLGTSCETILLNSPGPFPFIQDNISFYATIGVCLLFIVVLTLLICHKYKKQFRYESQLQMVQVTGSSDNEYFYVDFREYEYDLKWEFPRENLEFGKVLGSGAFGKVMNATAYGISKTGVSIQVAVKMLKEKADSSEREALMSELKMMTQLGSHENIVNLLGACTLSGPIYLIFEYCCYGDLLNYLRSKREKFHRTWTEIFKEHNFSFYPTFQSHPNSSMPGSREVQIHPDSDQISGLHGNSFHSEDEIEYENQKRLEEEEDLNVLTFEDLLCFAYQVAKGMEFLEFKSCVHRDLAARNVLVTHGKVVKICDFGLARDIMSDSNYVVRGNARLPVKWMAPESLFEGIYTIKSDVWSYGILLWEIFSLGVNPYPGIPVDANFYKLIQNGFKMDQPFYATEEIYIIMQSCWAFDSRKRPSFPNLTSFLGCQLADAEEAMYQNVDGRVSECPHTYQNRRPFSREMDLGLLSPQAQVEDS
measurement.label: pIC50
Convention used: pIC50 is expressed as -log10 of the molar concentration.

Data request: Quote pIC50 reported for Cn1sc(=O)n(Cc2ccccc2)c1=O please.
Data returned: 6.17

Values compiled from patent US9180118B2.
